Listing: pEC50 of selected compounds
# Tested on: Plasmodium falciparum
# Test summary: Antimalarial activity against chloroquine-resistant Plasmodium falciparum K1 infected in erythroctes incubated for 72 hrs by SYBR green 1 based spectrofluorometer
# Assay type: functional, organism-based, Erythrocyte
# Measurement context: erythrocyte
pEC50: −log10 of the molar value.

Compound | pEC50
CCOC(=O)C1=C(C)NC2=C(C(=O)OC(c3ccc(OC)c(OC)c3)C2)C1c1ccc(Cl)cc1C (stereo in doubt; 38A) | 6.00
CCOC(=O)C1=C(C)NC2=C(C(=O)CC(c3ccc(Cl)c(OC)c3)C2)C1c1ccc(Cl)cc1C (mixture of isomers) | 7.16
CCOC(=O)C1=C(C(=O)OCC)C(c2ccccc2Cl)C2=C(CC(c3ccc(OC)c(OC)c3)OC2=O)N1 (stereo in doubt; 33B) | 7.11
